# experimental-system: Transient receptor potential cation channel subfamily V member 4 (Homo sapiens)
# Sequence (Q9HBA0 whole entry): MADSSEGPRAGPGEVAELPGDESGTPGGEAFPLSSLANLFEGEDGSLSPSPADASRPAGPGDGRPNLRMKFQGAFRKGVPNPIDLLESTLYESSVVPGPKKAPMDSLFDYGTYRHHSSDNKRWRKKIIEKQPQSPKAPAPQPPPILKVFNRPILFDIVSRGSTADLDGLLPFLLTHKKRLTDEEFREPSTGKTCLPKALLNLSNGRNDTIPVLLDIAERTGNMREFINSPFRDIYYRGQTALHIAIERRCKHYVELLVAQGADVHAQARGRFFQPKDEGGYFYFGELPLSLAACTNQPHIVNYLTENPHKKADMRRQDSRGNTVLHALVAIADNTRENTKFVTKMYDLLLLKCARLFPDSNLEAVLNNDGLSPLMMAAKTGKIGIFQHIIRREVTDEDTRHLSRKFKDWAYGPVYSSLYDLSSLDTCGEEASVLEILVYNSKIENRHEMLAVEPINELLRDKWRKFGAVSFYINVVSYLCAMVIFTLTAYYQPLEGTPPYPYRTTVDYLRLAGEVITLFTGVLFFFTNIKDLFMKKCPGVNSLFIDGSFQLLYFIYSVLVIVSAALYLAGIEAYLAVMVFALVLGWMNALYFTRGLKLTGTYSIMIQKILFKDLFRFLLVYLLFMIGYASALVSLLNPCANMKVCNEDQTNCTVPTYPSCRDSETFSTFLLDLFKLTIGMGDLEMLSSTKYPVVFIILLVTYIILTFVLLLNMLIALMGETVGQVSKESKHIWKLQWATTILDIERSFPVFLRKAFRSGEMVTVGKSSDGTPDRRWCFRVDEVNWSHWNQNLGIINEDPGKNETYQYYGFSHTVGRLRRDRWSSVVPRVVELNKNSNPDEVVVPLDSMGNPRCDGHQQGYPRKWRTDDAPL
# assay-name: Antagonist activity at human TRPV4
readout: IC50
The answer should read as a number with its unit following.

[Q] Identify the reported IC50 for the following entry. Cc1c(C(=O)Nc2cccc(C(F)(F)F)c2)cc(-c2ccccc2)n1CCCN1CCOCC1
[A] 0.203 µM
